Biological target: transcortin (CBG) (Homo sapiens, UniProt P08185)
Construct: from tissue; host or cells: plasma from venous blood of healthy volunteers, charcoal-treated, diluted 100-fold
Sequence (P08185 23-405): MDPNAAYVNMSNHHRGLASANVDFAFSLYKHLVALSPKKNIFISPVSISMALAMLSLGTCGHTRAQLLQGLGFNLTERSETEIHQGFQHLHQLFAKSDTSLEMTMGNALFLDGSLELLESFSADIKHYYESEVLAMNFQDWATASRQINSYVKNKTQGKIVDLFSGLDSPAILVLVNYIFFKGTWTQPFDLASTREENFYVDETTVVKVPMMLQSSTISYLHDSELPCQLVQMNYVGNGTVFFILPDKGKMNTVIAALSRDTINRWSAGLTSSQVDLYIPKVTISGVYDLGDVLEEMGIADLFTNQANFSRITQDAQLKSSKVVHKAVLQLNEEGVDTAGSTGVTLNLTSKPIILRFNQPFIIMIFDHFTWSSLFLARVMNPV
Assay: Binding of corticosteroids to transcortin: 3H-cortisol competition in charcoal-treated diluted plasma
Conditions: estimated; unpublished results Bodor, Kurucz 2006; read-out: CBG Est. IC50
pIC50: −log10 of the molar value.
readout kind: pIC50

1) C[C@]12CCC(=O)C=C1CCC1C2[C@@H](O)C[C@@]2(C)C1CC[C@]2(O)C(=O)O (stereo partly drawn) | 6.92
2) COC(=O)[C@@]1(O)CCC2C3CCC4=CC(=O)C=C[C@]4(C)C3[C@@H](O)C[C@@]21C (stereo partly drawn) | 7.52

[a] CCOC(=O)O[C@]1(C(=O)OCCl)CC[C@H]2[C@@H]3CCC4=CC(=O)C=C[C@]4(C)[C@H]3[C@@H](O)C[C@@]21C [Loteprednol etabonate]
[b] C[C@]12C=CC(=O)C=C1CCC1C2[C@@H](O)C[C@@]2(C)C1CC[C@]2(O)C(=O)O (stereo partly drawn)
Smaller pIC50 value, a vs b ? Returns: label corresponding to the selected item.
a
(a: 6.57, b: 7.30)
